tested on: Saccharomyces cerevisiae; experiment: protein stability index of tFT-peptide fusion (C-terminal peptide) (PSI (0-1 scale)); higher = more stable (slower turnover); conditions: genetic background: wild type; temperature: 30 C;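 also: PSI is a weighted mean of sequencing reads over stability bins, variants kept only with over 10 reads, mCherry proximal and sfGFP distal, peptide attached via GGGS linker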
Value Kind: protein stability index

[
  {
    "Sequence Text": "SRVARWRSPGCC",
    "Value Kind": "protein stability index",
    "Reported Value": 0.647
  },
  {
    "Sequence Text": "SPPRPPSLPPPG",
    "Value Kind": "protein stability index",
    "Reported Value": 0.67
  },
  {
    "Sequence Text": "YRPPSPPSPLPP",
    "Value Kind": "protein stability index",
    "Reported Value": 0.674
  },
  {
    "Sequence Text": "STFRICTGVPRP",
    "Value Kind": "protein stability index",
    "Reported Value": 0.729
  },
  {
    "Sequence Text": "TKKRKRKKKGNK",
    "Value Kind": "protein stability index",
    "Reported Value": 0.715
  },
  {
    "Sequence Text": "GLRLFAPRWPQA",
    "Value Kind": "protein stability index",
    "Reported Value": 0.713
  },
  {
    "Sequence Text": "INSKTRIQVTEN",
    "Value Kind": "protein stability index",
    "Reported Value": 0.73
  },
  {
    "Sequence Text": "PKKNQSKQRKKT",
    "Value Kind": "protein stability index",
    "Reported Value": 0.708
  },
  {
    "Sequence Text": "SAPPLPLSPPPS",
    "Value Kind": "protein stability index",
    "Reported Value": 0.739
  },
  {
    "Sequence Text": "FLSVPHLLFLFI",
    "Value Kind": "protein stability index",
    "Reported Value": 0.511
  },
  {
    "Sequence Text": "LEITKKKIGLKY",
    "Value Kind": "protein stability index",
    "Reported Value": 0.716
  },
  {
    "Sequence Text": "SPVTDRRKRRNN",
    "Value Kind": "protein stability index",
    "Reported Value": 0.666
  },
  {
    "Sequence Text": "VWRSTVRVSRAG",
    "Value Kind": "protein stability index",
    "Reported Value": 0.763
  },
  {
    "Sequence Text": "VVWFCGFFFVMV",
    "Value Kind": "protein stability index",
    "Reported Value": 0.399
  },
  {
    "Sequence Text": "LNYRVLTKVDER",
    "Value Kind": "protein stability index",
    "Reported Value": 0.717
  },
  {
    "Sequence Text": "VVPYRCQRLGDG",
    "Value Kind": "protein stability index",
    "Reported Value": 0.686
  },
  {
    "Sequence Text": "ARPSPPAILVPS",
    "Value Kind": "protein stability index",
    "Reported Value": 0.586
  },
  {
    "Sequence Text": "TNNTKRDKKRIQ",
    "Value Kind": "protein stability index",
    "Reported Value": 0.703
  },
  {
    "Sequence Text": "VGGGGLGVEAWG",
    "Value Kind": "protein stability index",
    "Reported Value": 0.613
  },
  {
    "Sequence Text": "PPSRPLPSPLPP",
    "Value Kind": "protein stability index",
    "Reported Value": 0.631
  },
  {
    "Sequence Text": "RGPGAWFVSWWA",
    "Value Kind": "protein stability index",
    "Reported Value": 0.789
  },
  {
    "Sequence Text": "ARLAVTLLISPS",
    "Value Kind": "protein stability index",
    "Reported Value": 0.604
  },
  {
    "Sequence Text": "EGGAGGGVWGLG",
    "Value Kind": "protein stability index",
    "Reported Value": 0.819
  },
  {
    "Sequence Text": "VCGPCVESLETR",
    "Value Kind": "protein stability index",
    "Reported Value": 0.689
  }
]
